meta.source: patent US20210246200A1

measurement.target: T1, Proleukin® (aldesleukin) (human, UniProt P60568 21-153, limits assumed)
T1 construct: Variant of human wt IL-2 with C145S (C125S on mature IL-2); also called IL-2 (Proleukin®); human IL-2 (Proleukin)
T1 sequence (P60568 other isoform, or with tags, fused parts or gaps limits assumed): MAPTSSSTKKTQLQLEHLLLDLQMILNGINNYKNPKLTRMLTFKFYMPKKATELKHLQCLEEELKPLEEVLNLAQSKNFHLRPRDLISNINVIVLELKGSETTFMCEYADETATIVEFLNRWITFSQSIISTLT
protocol: ELISA, coated Proleukin, mean of 3 experiments;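 further: binding of anti-human IL-2 antibodies, tested as an 11-point dilution series for 2 hours, to plate-bound IL-2, detected via streptavidin-HRP with absorbance read at 450 nm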
Examples of binders with documented EC50 follow.
Just the number in nM, nothing appended.

Note down EC50 recorded for 104343_VH1D98E_VK2D28Q (antibody, V domains shown, Human IgG1 Fc domain with the N297A point mutation) VH: QVQLVQSGAEVKKPGSSVKVSCKASGYAFTNYLIEWVRQAPGQGLEWMGVINPGSGGTNYNEKFKGRVTITADKSTSTAYMELSSLRSEDTAVYYCARWRGEGYYAYFDVWGQGTTVTVSS VL: DIVLTQSPLSLPVTLGQPASISCKASQSVDYQGDSYMNWYQQRPGQSPRLLIYAASNLESGVPDRFSGSGSGTDFTLKISRVEAEDVGVYYCQQSNEDPYTFGGGTKVEIK
0.75

Identify the reported EC50 for the following entry. 108929 (antibody, human IgG1, kappa, N297A, V domains shown) VH: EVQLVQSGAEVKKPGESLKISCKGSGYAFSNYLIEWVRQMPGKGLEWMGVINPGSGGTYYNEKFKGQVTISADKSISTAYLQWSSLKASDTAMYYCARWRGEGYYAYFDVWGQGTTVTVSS VL: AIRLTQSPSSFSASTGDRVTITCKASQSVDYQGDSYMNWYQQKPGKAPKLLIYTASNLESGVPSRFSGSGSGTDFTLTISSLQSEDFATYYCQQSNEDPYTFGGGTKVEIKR
0.15

Please report EC50 for the following binder: 104349_VH5D98E_VK2D28Q (antibody, V domains shown, Human IgG1 Fc domain with the N297A point mutation) VH: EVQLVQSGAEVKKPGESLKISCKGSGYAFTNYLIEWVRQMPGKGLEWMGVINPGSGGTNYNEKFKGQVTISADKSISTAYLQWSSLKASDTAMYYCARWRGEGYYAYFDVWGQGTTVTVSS VL: DIVLTQSPLSLPVTLGQPASISCKASQSVDYQGDSYMNWYQQRPGQSPRLLIYAASNLESGVPDRFSGSGSGTDFTLKISRVEAEDVGVYYCQQSNEDPYTFGGGTKVEIK
0.66

Provide EC50 value for the following binder: 104348_VH5D98E_VK1 (antibody, V domains shown, Human IgG1 Fc domain with the N297A point mutation) VH: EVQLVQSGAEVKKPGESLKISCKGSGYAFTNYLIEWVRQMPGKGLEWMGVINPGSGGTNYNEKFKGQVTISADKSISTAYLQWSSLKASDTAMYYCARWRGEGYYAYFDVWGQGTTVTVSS VL: AIRLTQSPSSFSASTGDRVTITCKASQSVDYDGDSYMNWYQQKPGKAPKLLIYAASNLESGVPSRFSGSGSGTDFTLTISSLQSEDFATYYCQQSNEDPYTFGGGTKVEIK
0.77
